system: Plasmodium falciparum; experiment: Inhibition of Plasmodium falciparum protein farnesyltransferase at 50 nM
Measured Endpoint: inhibition (%)
Field: numeric (%). Do not append units.

What does the data say about its inhibition? Entry: Cn1cnc(S(=O)(=O)NC2Cc3cc(Br)cnc3N(Cc3cncn3C)C2=O)c1 (stereo unspecified)
28

Any idea what inhibition was measured for COC(=O)N1CCC(CN(C2Cc3cc(C#N)cnc3N(Cc3cncn3C)C2=O)S(=O)(=O)c2ccccn2)CC1 (stereo unspecified) ?
88

Looking for the measured inhibition of Cn1cnc(S(=O)(=O)NC2Cc3cc(C#N)cnc3N(Cc3cncn3C)C2=O)c1 (stereo unspecified) , can you help?
66

Look up inhibition: Cn1cncc1CN1C(=O)C(N(Cc2ccc(S(C)(=O)=O)cc2)S(=O)(=O)c2ccccn2)Cc2cc(C#N)cnc21 (stereo unspecified)
48

Name the reported inhibition value associated with the molecule Cn1cnc(S(=O)(=O)N(Cc2ccc(S(C)(=O)=O)cc2)C2Cc3cc(C#N)cnc3N(Cc3cncn3C)C2=O)c1 (stereo unspecified)
98

Looking for the measured inhibition of COC(=O)N1CCC(CN(C2Cc3cc(C#N)cnc3N(Cc3cncn3C)C2=O)S(=O)(=O)c2cn(C)cn2)CC1 (stereo unspecified) , can you help?
95

----------
tested on: Plasmodium falciparum; experiment: Inhibition of Plasmodium falciparum protein farnesyltransferase at 5 nM
Measured Endpoint: inhibition (%)
The figure you give is taken to be in %; do not add the unit.

Fill in the blank: the reported inhibition of Cn1cnc(S(=O)(=O)NC2Cc3cc(Br)cnc3N(Cc3cncn3C)C2=O)c1 (stereo unspecified) is ____.
0

Which inhibition reading was recorded for the compound COC(=O)N1CCC(CN(C2Cc3cc(C#N)cnc3N(Cc3cncn3C)C2=O)S(=O)(=O)c2ccccn2)CC1 (stereo unspecified) ?
16

If you can, please state the reported inhibition value of Cn1cncc1CN1C(=O)C(N(Cc2ccc(S(C)(=O)=O)cc2)S(=O)(=O)c2ccccn2)Cc2cc(C#N)cnc21 (stereo unspecified) .
3

Give its inhibition value. Item: Cn1cnc(S(=O)(=O)N(Cc2ccc(S(C)(=O)=O)cc2)C2Cc3cc(C#N)cnc3N(Cc3cncn3C)C2=O)c1 (stereo unspecified)
80

Reported inhibition, compound COC(=O)N1CCC(CN(C2Cc3cc(C#N)cnc3N(Cc3cncn3C)C2=O)S(=O)(=O)c2cn(C)cn2)CC1 (stereo unspecified) : ____
71

What value of measured inhibition is listed for Cn1cnc(S(=O)(=O)NC2Cc3cc(C#N)cnc3N(Cc3cncn3C)C2=O)c1 (stereo unspecified) ?
32

----------
species on record: Rattus norvegicus; test: Inhibition of rat protein farnesyltransferase at 500 nM
Measured Endpoint: inhibition

Report inhibition for Cn1cnc(S(=O)(=O)NC2Cc3cc(Br)cnc3N(Cc3cncn3C)C2=O)c1 (centres undefined) please.
8%

// query inhibition value for entry Cn1cnc(S(=O)(=O)N(Cc2ccc(S(C)(=O)=O)cc2)C2Cc3cc(C#N)cnc3N(Cc3cncn3C)C2=O)c1 (centres undefined)
9%

Any idea what its inhibition is? The compound is Cn1cnc(S(=O)(=O)NC2Cc3cc(C#N)cnc3N(Cc3cncn3C)C2=O)c1 (centres undefined)
0%

# inhibition lookup, item COC(=O)N1CCC(CN(C2Cc3cc(C#N)cnc3N(Cc3cncn3C)C2=O)S(=O)(=O)c2cn(C)cn2)CC1 (centres undefined)
71%

----------
species: Rattus norvegicus; assay: Inhibition of rat protein farnesyltransferase at 50 nM
Measured Endpoint: inhibition
Please report the result as a number followed by the unit.

Bench note: what inhibition did Cn1cnc(S(=O)(=O)N(Cc2ccc(S(C)(=O)=O)cc2)C2Cc3cc(C#N)cnc3N(Cc3cncn3C)C2=O)c1 (centres undefined) show?
0%

Look up inhibition: Cn1cnc(S(=O)(=O)NC2Cc3cc(C#N)cnc3N(Cc3cncn3C)C2=O)c1 (centres undefined)
1%

I'd like to know its inhibition. The compound in question is COC(=O)N1CCC(CN(C2Cc3cc(C#N)cnc3N(Cc3cncn3C)C2=O)S(=O)(=O)c2cn(C)cn2)CC1 (centres undefined)
28%

Consider the compound Cn1cnc(S(=O)(=O)NC2Cc3cc(Br)cnc3N(Cc3cncn3C)C2=O)c1 (centres undefined) and give its measured inhibition.
8%

----------
Kindly supply the reported inhibition values for the records listed here.
test system: Plasmodium falciparum; test: Inhibition of Plasmodium falciparum protein farnesyltransferase at 500 nM
Give the number; % is assumed, so skip it.

// returns reported inhibition for input COC(=O)N1CCC(CN(C2Cc3cc(C#N)cnc3N(Cc3cncn3C)C2=O)S(=O)(=O)c2cn(C)cn2)CC1 (stereo unspecified)
98

Which measured inhibition value corresponds to Cn1cnc(S(=O)(=O)N(Cc2ccc(S(C)(=O)=O)cc2)C2Cc3cc(C#N)cnc3N(Cc3cncn3C)C2=O)c1 (stereo unspecified) ?
99

Please look up its inhibition: Cn1cncc1CN1C(=O)C(N(Cc2ccc(S(C)(=O)=O)cc2)S(=O)(=O)c2ccccn2)Cc2cc(C#N)cnc21 (stereo unspecified)
91

For the compound Cn1cnc(S(=O)(=O)NC2Cc3cc(C#N)cnc3N(Cc3cncn3C)C2=O)c1 (stereo unspecified) , what inhibition is on record?
94

What does the record list as inhibition for Cn1cnc(S(=O)(=O)NC2Cc3cc(Br)cnc3N(Cc3cncn3C)C2=O)c1 (stereo unspecified) ?
74

Requested field: inhibition. Item: COC(=O)N1CCC(CN(C2Cc3cc(C#N)cnc3N(Cc3cncn3C)C2=O)S(=O)(=O)c2ccccn2)CC1 (stereo unspecified)
97

----------
system: Plasmodium falciparum; assay: Antimalarial activity against chloroquine-resistant Plasmodium falciparum K1 in human red blood cells after 48 hrs; type: functional; settings: K1, 48 h, read-out: ED50 (the source's name)
Measured Endpoint: pEC50
Just so you know, pEC50 here is -log10 of the concentration in molar units; reply with that number alone.

Quick one: pEC50 for COC(=O)N1CCC(CN(C2Cc3cc(C#N)cnc3N(Cc3cncn3C)C2=O)S(=O)(=O)c2cn(C)cn2)CC1 (stereo unspecified) ?
6.76

What value of measured pEC50 is listed for COC(=O)N1CCC(CN(C2Cc3cc(C#N)cnc3N(Cc3cncn3C)C2=O)S(=O)(=O)c2ccccn2)CC1 (stereo unspecified) ?
6.51

Entry Cn1cnc(S(=O)(=O)N(Cc2ccc(S(C)(=O)=O)cc2)C2Cc3cc(C#N)cnc3N(Cc3cncn3C)C2=O)c1 (stereo unspecified) has what pEC50?
6.52

----------
experiment: Metabolic stability assessed as half life in mouse liver microsomes; type: ADME, Microsome; details: liver microsomes
Measured Endpoint: half-life (min)
Please respond with the number in min and leave the unit unwritten.

// lookup half-life for COC(=O)N1CCC(CN(C2Cc3cc(C#N)ccc3N(Cc3cncn3C)C2)S(=O)(=O)c2cn(C)cn2)CC1 (stereo not given)
3.8

What value of measured half-life is listed for COC(=O)N1CCC(CN(C2Cc3cc(C#N)ccc3N(Cc3cncn3C)C2)S(=O)(=O)c2ccccn2)CC1 (stereo not given) ?
5.4

Look up half-life for this compound: Cn1cncc1CN1C(=O)C(N(Cc2ccc(S(C)(=O)=O)cc2)S(=O)(=O)c2ccccn2)Cc2cc(C#N)cnc21 (stereo not given)
15

Entry Cn1cnc(S(=O)(=O)N(Cc2ccc(S(C)(=O)=O)cc2)C2Cc3cc(C#N)cnc3N(Cc3cncn3C)C2=O)c1 (stereo not given) : reported half-life = ?
52

----------
species on record: Rattus norvegicus; assay: Inhibition of rat protein geranylgeranyltransferase 1 at 1 uM
Exercise: for every item that follows, state its recorded inhibition.
Give just the numeric value; % need not be written.

# get_value(readout='inhibition', item= COC(=O)N1CCC(CN(C2Cc3cc(C#N)cnc3N(Cc3cncn3C)C2=O)S(=O)(=O)c2cn(C)cn2)CC1 (centres undefined) )
5

# lookup: inhibition of Cn1cnc(S(=O)(=O)N(Cc2ccc(S(C)(=O)=O)cc2)C2Cc3cc(C#N)cnc3N(Cc3cncn3C)C2=O)c1 (centres undefined)
0

Name the reported inhibition value associated with the compound Cn1cnc(S(=O)(=O)NC2Cc3cc(Br)cnc3N(Cc3cncn3C)C2=O)c1 (centres undefined)
16

GET /values?readout=inhibition&item= Cn1cnc(S(=O)(=O)NC2Cc3cc(C#N)cnc3N(Cc3cncn3C)C2=O)c1 (centres undefined)
0

----------
species: Rattus norvegicus; assay: Inhibition of rat protein farnesyltransferase at 5 nM
Would you kindly list inhibition for each of these molecules?
State just the number; it will be interpreted in %.

Record request: inhibition value, item COC(=O)N1CCC(CN(C2Cc3cc(C#N)cnc3N(Cc3cncn3C)C2=O)S(=O)(=O)c2cn(C)cn2)CC1 (centres undefined)
7

Reported inhibition for Cn1cnc(S(=O)(=O)NC2Cc3cc(Br)cnc3N(Cc3cncn3C)C2=O)c1 (centres undefined) : what is it?
5

Would you kindly share the measured inhibition for Cn1cnc(S(=O)(=O)N(Cc2ccc(S(C)(=O)=O)cc2)C2Cc3cc(C#N)cnc3N(Cc3cncn3C)C2=O)c1 (centres undefined) ?
0

Consider the molecule shown here: Cn1cnc(S(=O)(=O)NC2Cc3cc(C#N)cnc3N(Cc3cncn3C)C2=O)c1 (centres undefined) What is its recorded inhibition?
0

----------
system: Plasmodium falciparum; assay: Inhibition of Plasmodium falciparum protein farnesyltransferase at 0.5 nM
Field: inhibition. Provide a value for each of the molecules that follow.
Response body: numeric value in %, unit text excluded.

Using the record for Cn1cnc(S(=O)(=O)NC2Cc3cc(Br)cnc3N(Cc3cncn3C)C2=O)c1 (stereo unspecified) , report its inhibition.
0

Which inhibition value belongs to COC(=O)N1CCC(CN(C2Cc3cc(C#N)cnc3N(Cc3cncn3C)C2=O)S(=O)(=O)c2ccccn2)CC1 (stereo unspecified) ?
0

For the molecule shown here, Cn1cnc(S(=O)(=O)NC2Cc3cc(C#N)cnc3N(Cc3cncn3C)C2=O)c1 (stereo unspecified) , give the reported inhibition.
15

I am curious: what inhibition value has been reported for COC(=O)N1CCC(CN(C2Cc3cc(C#N)cnc3N(Cc3cncn3C)C2=O)S(=O)(=O)c2cn(C)cn2)CC1 (stereo unspecified) ?
33

Any idea what inhibition was measured for Cn1cncc1CN1C(=O)C(N(Cc2ccc(S(C)(=O)=O)cc2)S(=O)(=O)c2ccccn2)Cc2cc(C#N)cnc21 (stereo unspecified) ?
0

Consider the molecule Cn1cnc(S(=O)(=O)N(Cc2ccc(S(C)(=O)=O)cc2)C2Cc3cc(C#N)cnc3N(Cc3cncn3C)C2=O)c1 (stereo unspecified) and give its measured inhibition.
27
